# credit: paper doi:10.1101/2021.02.05.429362

Target: G3BP1-NTF2 (residues 1-139) (human (by the printed UniProt entry …))
Assay: ITC
Where no end group is shown, it is not given here.
value kind: pKd
In simple prose, pKd is minus the logarithm base ten of a concentration in moles per litre.

Input: Answer with the recorded pKd of {GFP}-RQRVQDLMAQMQGPYNFIQDSMLDFENQTLD (domain or fragment) [GFP-Caprin-1^356-386] only.
Output: 5.85

Input: Consider the binder MALHSPQYIFGDFSPDEFNQFFVTPRSS (domain or fragment) [GFP-USP10^1-28] and give its recorded pKd.
Output: 6.30
